# System: human SMAD7 mRNA
# protocol: Antisense inhibition of human SMAD7 mRNA expression in Hep3B cells by 5-10-5 MOE gapmers, single concentration, electroporation, RT-PCR (Example 1, Study 1 and 2)
# Type: cell-based
# protocol_conditions: electroporation, 15,000 nM antisense oligonucleotide (Study 2), 5-10-5 MOE gapmers targeting SEQ ID NO: 1 and 2
Strand notation (5' to 3'): a small letter for the sugar, then the base; units joined by * are phosphorothioate-linked, units joined directly phosphodiester-linked; [ ] holds rarer units or linkages, { } end groups; capitals alone tell only the bases. e = 2'-O-(2-methoxyethyl) (MOE); [5mC] = 5-methylcytosine; d = 2'-deoxy (DNA)
Parameter class (string): assigned from measured % inhibition of SMAD7 mRNA expression. Ranges: low interval (below 5%), middle interval (5% to below 30%), high interval (30% or more)

{"columns": ["substance", "classification"],
 "data": [
  ["771898 (antisense eG*eG*eT*eG*eT*dG*dA*dG*d[5mC]*dT*dG*dT*dG*dG*dA*e[5mC]*eA*e[5mC]*eA*eG) [compound 771898]", "middle interval"],
  ["771897 (antisense e[5mC]*eT*e[5mC]*eT*e[5mC]*dA*dG*dG*dG*dT*d[5mC]*dT*d[5mC]*dA*dG*eT*eT*eT*eG*eA) [compound 771897]", "high interval"],
  ["771482 (antisense e[5mC]*e[5mC]*eG*e[5mC]*eT*dG*d[5mC]*dA*dG*dG*d[5mC]*dT*dG*dT*dA*e[5mC]*eG*e[5mC]*e[5mC]*eT) [compound 771482]", "high interval"],
  ["771738 (antisense eG*eA*eG*e[5mC]*eT*dT*d[5mC]*d[5mC]*dT*dA*dA*dG*dT*dA*d[5mC]*eT*eG*eT*eT*eA) [compound 771738]", "middle interval"],
  ["771816 (antisense eA*eT*e[5mC]*e[5mC]*eA*dA*d[5mC]*dT*dA*d[5mC]*dT*d[5mC]*dA*dG*dA*eG*eG*e[5mC]*eT*eG) [compound 771816]", "middle interval"],
  ["771712 (antisense eA*eT*eT*e[5mC]*eT*dT*dT*dT*dA*dG*d[5mC]*d[5mC]*d[5mC]*dA*dA*e[5mC]*eT*eG*eT*eT) [compound 771712]", "low interval"],
  ["771552 (antisense e[5mC]*eT*eT*eG*eG*dA*dT*dT*dT*d[5mC]*dT*dG*d[5mC]*dT*dT*e[5mC]*e[5mC]*e[5mC]*e[5mC]*eT) [compound 771552]", "middle interval"],
  ["771545 (antisense e[5mC]*e[5mC]*eA*eA*eA*dA*dA*dA*dA*d[5mC]*d[5mC]*d[5mC]*d[5mC]*d[5mC]*dA*eA*e[5mC]*eA*eA*eT) [compound 771545]", "middle interval"],
  ["771736 (antisense eT*eG*e[5mC]*e[5mC]*eA*dG*dA*dT*d[5mC]*dT*d[5mC]*dA*dG*dG*dT*e[5mC]*eA*eA*eG*eA) [compound 771736]", "low interval"],
  ["771426 (e[5mC]*eA*e[5mC]*e[5mC]*eG*d[5mC]*d[5mC]*dT*dT*dG*d[5mC]*d[5mC]*d[5mC]*dA*dG*eG*e[5mC]*eA*eG*e[5mC]; antisense) [compound 771426]", "middle interval"],
  ["771761 (antisense e[5mC]*e[5mC]*e[5mC]*e[5mC]*eA*dT*dT*d[5mC]*d[5mC]*dT*d[5mC]*d[5mC]*dA*dG*dT*e[5mC]*eT*eT*eT*eA) [compound 771761]", "high interval"],
  ["771425 (e[5mC]*e[5mC]*eT*eT*eG*d[5mC]*d[5mC]*d[5mC]*dA*dG*dG*d[5mC]*dA*dG*d[5mC]*eA*eT*e[5mC]*e[5mC]*eA; antisense) [compound 771425]", "low interval"],
  ["771577 (antisense eT*eG*e[5mC]*e[5mC]*eT*d[5mC]*dT*dG*d[5mC]*d[5mC]*d[5mC]*d[5mC]*dA*d[5mC]*dT*eG*eA*eG*e[5mC]*eG) [compound 771577]", "middle interval"],
  ["771553 (antisense eT*eG*eG*eT*eG*d[5mC]*dT*dT*dG*dG*dA*dT*dT*dT*d[5mC]*eT*eG*e[5mC]*eT*eT) [compound 771553]", "high interval"],
  ["771705 (antisense eA*eA*eT*eG*e[5mC]*d[5mC]*d[5mC]*dT*dT*dT*dG*dA*dG*dT*dT*eT*e[5mC]*e[5mC]*e[5mC]*e[5mC]) [compound 771705]", "high interval"],
  ["771696 (antisense e[5mC]*eT*e[5mC]*eT*e[5mC]*d[5mC]*d[5mC]*dA*dG*dG*dA*dG*dG*dG*dT*eA*eT*eG*e[5mC]*eA) [compound 771696]", "low interval"],
  ["771512 (antisense eA*eG*eT*eA*eG*dT*dT*dT*dG*dA*dA*dG*dT*dG*dT*eG*eG*e[5mC]*e[5mC]*eT) [compound 771512]", "low interval"],
  ["771529 (antisense e[5mC]*eG*eA*e[5mC]*e[5mC]*dA*dA*dA*dG*dA*dG*dT*dT*dT*dG*e[5mC]*eA*eT*eG*eA) [compound 771529]", "low interval"],
  ["771403 (antisense eG*eA*eA*e[5mC]*eA*dT*dG*dA*d[5mC]*d[5mC]*dT*d[5mC]*d[5mC]*dG*d[5mC]*eA*e[5mC]*eA*e[5mC]*e[5mC]) [compound 771403]", "high interval"],
  ["771938 (antisense e[5mC]*e[5mC]*eT*eT*e[5mC]*d[5mC]*d[5mC]*dA*dA*dA*dT*dG*d[5mC]*d[5mC]*dT*eG*e[5mC]*e[5mC]*e[5mC]*e[5mC]) [compound 771938]", "middle interval"]
]}

---

# System: human SMAD7 mRNA
# protocol: Antisense inhibition of human SMAD7 mRNA expression in Hep3B cells by 3-10-3 cEt gapmers, 10,000 nM, electroporation (Example 2)
# Type: cell-based
# protocol_conditions: Hep3B cells, electroporation with 10,000 nM antisense oligonucleotide, approximately 24 hours, SMAD7 mRNA by RT-PCR (RTS5062), relative to untreated control cells
Strand notation (5' to 3'): a small letter for the sugar, then the base; units joined by * are phosphorothioate-linked, units joined directly phosphodiester-linked; [ ] holds rarer units or linkages, { } end groups; capitals alone tell only the bases. k = constrained ethyl (cEt); [5mC] = 5-methylcytosine; d = 2'-deoxy (DNA)
Overview of recorded % Inhibition for various substances
measured_quantity: % Inhibition (%)

{"columns": ["substance", "measured_quantity", "result_number"],
 "data": [
  ["790493 (kG*kT*kT*dG*dA*dT*d[5mC]*dT*dT*d[5mC]*d[5mC]*d[5mC]*dG*kT*kA*kA; antisense) [compound 790493]", "% Inhibition", 0],
  ["798861 (kG*kT*kG*dT*dG*dG*d[5mC]*dG*dG*dA*d[5mC]*dT*dT*kG*kA*kT; antisense) [compound 798861]", "% Inhibition", 24],
  ["772557 (antisense kG*kT*k[5mC]*d[5mC]*dA*dG*dG*d[5mC]*dG*dG*d[5mC]*d[5mC]*dG*kG*kG*k[5mC]) [compound 772557]", "% Inhibition", 2],
  ["798886 (kT*k[5mC]*kT*dG*d[5mC]*dA*d[5mC]*dG*dG*dT*dA*dA*dA*kG*k[5mC]*k[5mC]; antisense) [compound 798886]", "% Inhibition", 29],
  ["798862 (kT*k[5mC]*k[5mC]*dA*dG*dT*dG*dT*dG*dG*d[5mC]*dG*dG*kA*k[5mC]*kT; antisense) [compound 798862]", "% Inhibition", 20],
  ["798813 (k[5mC]*k[5mC]*kG*dA*dT*d[5mC]*d[5mC]*d[5mC]*d[5mC]*dA*dG*dG*d[5mC]*kT*k[5mC]*k[5mC]; antisense) [compound 798813]", "% Inhibition", 23],
  ["830193 (antisense k[5mC]*kT*kT*dT*dT*d[5mC]*d[5mC]*dG*dG*dT*dA*dT*dT*kT*kT*k[5mC]) [compound 830193]", "% Inhibition", 35],
  ["800101 (antisense kA*kA*k[5mC]*dA*dA*dA*dG*d[5mC]*d[5mC]*dT*d[5mC]*dT*dT*k[5mC]*kT*k[5mC]) [compound 800101]", "% Inhibition", 0],
  ["798717 (antisense kA*kG*k[5mC]*d[5mC]*d[5mC]*dT*dG*d[5mC]*d[5mC]*d[5mC]*dG*dG*dG*k[5mC]*k[5mC]*kG) [compound 798717]", "% Inhibition", 18],
  ["830033 (antisense kT*k[5mC]*k[5mC]*d[5mC]*d[5mC]*d[5mC]*dT*dT*dG*dG*dA*dA*dA*kT*kG*kG) [compound 830033]", "% Inhibition", 28],
  ["830174 (antisense kG*kA*kG*dA*dG*dG*dT*dG*dT*dT*dT*d[5mC]*d[5mC]*kA*kA*kG) [compound 830174]", "% Inhibition", 49],
  ["799923 (antisense kG*k[5mC]*k[5mC]*dT*dA*d[5mC]*dA*dT*dA*dT*dT*dT*d[5mC]*kG*k[5mC]*kA) [compound 799923]", "% Inhibition", 15]
]}

Values compiled from patent US10517889B2.
